Data origin: the supplement of paper PMC10065799

TESTED_SYSTEM: Jak2 (UniProt O60674)
Sequence (O60674 whole entry, looked up): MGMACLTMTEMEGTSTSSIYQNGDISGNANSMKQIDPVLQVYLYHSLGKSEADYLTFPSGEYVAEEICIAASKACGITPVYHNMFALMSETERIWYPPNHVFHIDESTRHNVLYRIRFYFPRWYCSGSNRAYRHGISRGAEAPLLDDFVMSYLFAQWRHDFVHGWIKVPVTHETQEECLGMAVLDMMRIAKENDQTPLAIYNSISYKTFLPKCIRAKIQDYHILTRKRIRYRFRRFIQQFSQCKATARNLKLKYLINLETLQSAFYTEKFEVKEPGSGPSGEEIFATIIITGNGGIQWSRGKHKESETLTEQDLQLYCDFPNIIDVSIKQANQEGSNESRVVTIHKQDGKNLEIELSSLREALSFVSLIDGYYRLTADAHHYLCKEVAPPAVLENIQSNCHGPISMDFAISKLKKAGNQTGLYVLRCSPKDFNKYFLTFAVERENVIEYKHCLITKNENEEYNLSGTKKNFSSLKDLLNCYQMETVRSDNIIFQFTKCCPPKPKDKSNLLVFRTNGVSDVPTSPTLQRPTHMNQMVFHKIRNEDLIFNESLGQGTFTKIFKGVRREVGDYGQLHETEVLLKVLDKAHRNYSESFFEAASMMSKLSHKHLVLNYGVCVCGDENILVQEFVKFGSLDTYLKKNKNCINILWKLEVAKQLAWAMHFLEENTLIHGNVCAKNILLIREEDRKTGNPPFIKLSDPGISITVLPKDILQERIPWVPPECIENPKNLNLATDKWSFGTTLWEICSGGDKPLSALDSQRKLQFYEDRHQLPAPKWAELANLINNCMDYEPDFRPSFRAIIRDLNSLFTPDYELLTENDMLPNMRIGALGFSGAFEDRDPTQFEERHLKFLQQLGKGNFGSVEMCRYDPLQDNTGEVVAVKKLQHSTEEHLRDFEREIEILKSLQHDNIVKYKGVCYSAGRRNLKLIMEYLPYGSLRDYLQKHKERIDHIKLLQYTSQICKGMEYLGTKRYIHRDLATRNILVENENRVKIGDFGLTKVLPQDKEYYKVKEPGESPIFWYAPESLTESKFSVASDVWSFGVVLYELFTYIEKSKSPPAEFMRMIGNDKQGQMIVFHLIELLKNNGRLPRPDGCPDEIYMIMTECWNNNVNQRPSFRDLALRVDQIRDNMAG
PROTOCOL_DESCRIPTION: phosphorylation enrichment, bacterial display (enrichment ratio); higher = better substrate or ligand; peptides without Tyr show the background;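 also: 11-residue human phosphosite peptides and single-mutation variants displayed on the E. coli surface, counted by deep sequencing, each peptide's frequency after selection divided by its frequency in the unselected input library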;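 also: frequency after pTyr selection over input frequency; kinase dosed for 20-30% of maximal phosphorylation in three min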
Would you mind sorting the entries by phosphorylation enrichment according to these classes? one (below 0.9), two (0.9 to below 1), three (1 or more)

[[record]]
chain = "MKALGYFAVGT [OPA1_Y498_V502G]"
category = "three"

[[record]]
chain = "PTYENYANSTQ [SLC12A3_Y70_H69N]"
category = "one"

[[record]]
chain = "CTTIHYHYMCN [TP53_Y234_N235H]"
category = "one"

[[record]]
chain = "AGADGYDFLAP [FOXL2_Y186_G187D_YF]"
category = "three"

[[record]]
chain = "PFQGAYLKINK [MYO1B_Y967_E969K]"
category = "three"

[[record]]
chain = "LVMFIYAISGM [SCN1A_Y1684_F1687S]"
category = "three"

[[record]]
chain = "QDRTFYERVRT [SPEN_Y633_S635R_YF]"
category = "one"

[[record]]
chain = "AHPIIYDIIEA [PYKtide_D_2014]"
category = "two"

[[record]]
chain = "LGGAMYYLEAD [PKHD1_Y452_E457D]"
category = "three"

[[record]]
chain = "KMMGRYEMYAR [UPB1_Y362_T359M]"
category = "two"

[[record]]
chain = "YSGDCYRIQGR [DDR2_Y741_Y740C]"
category = "one"


----------
Attribute: phosphorylation enrichment
TESTED_SYSTEM: Fes (UniProt P07332)
Sequence (P07332 whole entry, looked up): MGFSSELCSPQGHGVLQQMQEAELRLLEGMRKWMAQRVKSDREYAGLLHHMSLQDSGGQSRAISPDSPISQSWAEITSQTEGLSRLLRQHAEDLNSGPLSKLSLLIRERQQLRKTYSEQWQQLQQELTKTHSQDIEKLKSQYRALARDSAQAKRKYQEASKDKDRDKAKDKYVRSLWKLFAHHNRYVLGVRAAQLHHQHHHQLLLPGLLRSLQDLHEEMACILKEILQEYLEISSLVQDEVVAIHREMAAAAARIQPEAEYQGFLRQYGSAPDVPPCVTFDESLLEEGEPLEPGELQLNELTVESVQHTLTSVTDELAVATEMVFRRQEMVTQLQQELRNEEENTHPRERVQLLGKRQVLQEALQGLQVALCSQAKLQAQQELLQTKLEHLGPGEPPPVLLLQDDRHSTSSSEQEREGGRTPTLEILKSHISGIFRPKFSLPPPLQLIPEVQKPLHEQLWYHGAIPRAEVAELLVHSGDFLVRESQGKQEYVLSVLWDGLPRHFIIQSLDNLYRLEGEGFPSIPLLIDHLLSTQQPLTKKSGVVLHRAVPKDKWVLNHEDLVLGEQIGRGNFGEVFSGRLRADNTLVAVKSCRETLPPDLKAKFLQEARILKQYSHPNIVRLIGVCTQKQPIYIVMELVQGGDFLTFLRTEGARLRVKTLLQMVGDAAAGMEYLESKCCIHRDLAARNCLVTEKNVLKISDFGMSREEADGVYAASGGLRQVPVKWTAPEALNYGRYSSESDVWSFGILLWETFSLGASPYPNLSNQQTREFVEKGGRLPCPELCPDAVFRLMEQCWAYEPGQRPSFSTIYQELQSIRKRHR
PROTOCOL_DESCRIPTION: phosphorylation enrichment, bacterial display (enrichment ratio); higher = better substrate or ligand; peptides without Tyr show the background
ASSAY_METRIC: phosphorylation enrichment

[[record]]
chain = "VPLLEYFRDIF [CDAN1_Y712_YF]"
readout_number = 1.6

[[record]]
chain = "DQIDTYELSGG [DNM1_Y354]"
readout_number = 1.12

[[record]]
chain = "FFCKFYNKSED [RYR1_Y4864_R4861C]"
readout_number = 1.74

[[record]]
chain = "TKDTFYKQPVF [GBA_Y451_M455V]"
readout_number = 0.766

[[record]]
chain = "ETCLAYREKRI [TEKT1_Y118]"
readout_number = 0.956

[[record]]
chain = "FTHSDYQFSQR [PKP2_Y166_YF]"
readout_number = 0.764

[[record]]
chain = "RLMLQYDAVVN [SLC25A32_Y152]"
readout_number = 1.67


----------
Test system: c-Abl (mouse)
PROTOCOL_DESCRIPTION: phosphorylation enrichment, bacterial display (enrichment ratio); higher = better substrate or ligand; peptides without Tyr show the background
Attribute: phosphorylation enrichment
ASSAY_METRIC: phosphorylation enrichment

[[record]]
chain = "DAGTDYVGISR [FREM2_Y2061]"
readout_number = 0.54

[[record]]
chain = "QDTSRYTVSNL [BIRC3_Y245]"
readout_number = 0.804

[[record]]
chain = "IALNSYHSRNC [IFNGR1_Y397]"
readout_number = 0.599

[[record]]
chain = "RNDQVYQPLRD [CD3D_Y149]"
readout_number = 0.728

[[record]]
chain = "FADIAYNFRHA [PAH_Y166_G171A_YF]"
readout_number = 0.506

[[record]]
chain = "GFSDPYVKAFL [SYT3_Y470_S474F]"
readout_number = 0.772

[[record]]
chain = "PPSELYFVKVD [TERT_Y707_P704S]"
readout_number = 0.733

[[record]]
chain = "SLTGAYASGIP [POM121C_Y378_T379A]"
readout_number = 0.647

[[record]]
chain = "FKEQGYHRLPS [RIN1_Y681_P686S_YF]"
readout_number = 1.3

[[record]]
chain = "CFVFFYSFLLK [PTEN_Y178_R173C_YF]"
readout_number = 0.86

[[record]]
chain = "ETLLFYGCRRS [POR_Y564_YF]"
readout_number = 0.82

[[record]]
chain = "LFHENYNAGTF [CFI_Y421_I416L_YF]"
readout_number = 0.597

[[record]]
chain = "MGSYNYLGFPR [SPTLC2_Y178_A182P]"
readout_number = 1.04

[[record]]
chain = "TSIGNYYKPWF [DHCR24_Y299_N294T]"
readout_number = 14.6

[[record]]
chain = "PTYENYANSTQ [SLC12A3_Y70_H69N]"
readout_number = 0.418

[[record]]
chain = "TNFSLYLRSLE [MTM1_Y71_R69S_YF]"
readout_number = 0.908

[[record]]
chain = "TLQSMYGCDLG [HLA-B_Y123_V127L]"
readout_number = 1.06

[[record]]
chain = "KRGASYILKLA [SERPINB1_Y84]"
readout_number = 0.802

[[record]]
chain = "DAVKHYMQFRK [CNGA2_Y395]"
readout_number = 0.54

[[record]]
chain = "VKKKLYEEIDQ [CYP17A1_Y329]"
readout_number = 0.66

[[record]]
chain = "TGDFGYRAPGF [TNS2_Y668_YF]"
readout_number = 1.02

[[record]]
chain = "GVLKEYGEKVL [CPS1_Y529_V531E]"
readout_number = 0.648

[[record]]
chain = "PTDCVYVMPTV [MYO7A_Y1668_S1666C]"
readout_number = 7.37

[[record]]
chain = "QRRYLYYYSYL [PTEN_Y176_V175L]"
readout_number = 0.494

[[record]]
chain = "FTDPFYDFEIE [ZC3H18_Y372_A368T_YF]"
readout_number = 1.05

[[record]]
chain = "NQNIGYELGHR [KCNN3_Y268_K269E]"
readout_number = 0.425

[[record]]
chain = "DAVAVYDGKIS [SH2D1A_Y7_H8D]"
readout_number = 0.728

[[record]]
chain = "GRTNICKNKKD [SLC26A3_Y520_Y520C]"
readout_number = 1.39

[[record]]
chain = "SSSNPYSTVTM [ACTN2_Y599]"
readout_number = 0.768

[[record]]
chain = "PATINYPFEKG [NDUFS8_Y84]"
readout_number = 0.491

[[record]]
chain = "KPRKLYTIKKP [BRD2_Y715_P714L]"
readout_number = 0.456

[[record]]
chain = "EKKKKYMLPLD [DNM2_Y563_E560K]"
readout_number = 0.691

[[record]]
chain = "MFVKSYTIHFS [F5_Y2153_YF]"
readout_number = 0.851

[[record]]
chain = "KNEKVYTRHGV [FLOT1_Y56_S52N]"
readout_number = 0.435

[[record]]
chain = "RRGMPYGGHGD [TGM1_Y312_R315H]"
readout_number = 0.357

[[record]]
chain = "DAAEDYAEGVC [DHODH_Y194_R199C]"
readout_number = 0.917

[[record]]
chain = "NTVLGYFIGRI [GARS1_Y408]"
readout_number = 0.634

[[record]]
chain = "PKKKQYTSIHH [APP_Y728_L723P]"
readout_number = 0.617

[[record]]
chain = "RLRKYHLGKYL [KLB_Y906_Y906H]"
readout_number = 0.61

[[record]]
chain = "MTKEQYIKMNR [ARFGEF2_Y797]"
readout_number = 0.335

[[record]]
chain = "CVVVPYEPPEV [TP53_Y220_S215C]"
readout_number = 1.01

[[record]]
chain = "VDLIVYLWTNP [TK2_Y181_R183W]"
readout_number = 0.897

[[record]]
chain = "DGMADCSDPSF [CDC5L_Y459_Y459C_YF]"
readout_number = 1

[[record]]
chain = "PNATLYKMSSI [SERPINA7_Y40]"
readout_number = 0.472

[[record]]
chain = "ICGVSYDEYRY [CFTR_Y512_F508C]"
readout_number = 0.943

[[record]]
chain = "QLAPQYTFTQG [FLNA_Y1761_A1764T_YF]"
readout_number = 1.49

[[record]]
chain = "SGSIHYSCVPR [GLB1_Y57_R59C]"
readout_number = 0.898

[[record]]
chain = "DRLPSYLDKVR [KRT12_Y139_A137P]"
readout_number = 0.494

[[record]]
chain = "QRASDYFSQQM [GBP6_Y333_A331S_YF]"
readout_number = 1.28

[[record]]
chain = "GRVLGYGAFRK [FLT4_Y853_G857R]"
readout_number = 0.644

[[record]]
chain = "RESYKYFPSSL [CXXC1_Y218]"
readout_number = 0.77

[[record]]
chain = "CERLPYDASKW [FLT1_Y815]"
readout_number = 0.824

[[record]]
chain = "SFSGEYGSGGG [ZG16_Y30_G32S_YF]"
readout_number = 0.564

[[record]]
chain = "RNYGTYTAGLS [RHBDD1_Y264_D262G]"
readout_number = 0.629

[[record]]
chain = "GSIQQYTFKQE [PRG4_Y1271_I1272T_YF]"
readout_number = 0.728

[[record]]
chain = "ADMETYLLEKS [MYH7_Y266_I263M]"
readout_number = 0.864

[[record]]
chain = "ECKLLYSRKEG [PTPN11_Y263]"
readout_number = 0.77

